These measurements were taken from PubChem BioAssay (NCI).

assay: NCI Yeast Anticancer Drug Screen. Data for the sgs1 mgt1 strain (AID 161);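 also: 0% = growth of cultures given vehicle only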; settings: S. cerevisiae sgs1 mgt1 strain, at 5.0 µM (retest, dose inferred, filed as 0.5), hits give high values
The panel holds about 79,000 compounds, 15% with a hit somewhere; the sample as a whole holds those more often.
Reported values of growth inhibition for individual entries
Record the value in %, omitting the unit from your answer.

Below are worked cases with known answers.
COMPOUND	growth inhibition, %
CC(=O)OC12CCC3C4CC=C5CC(O)CCC5(C)C4C(=O)C3C1(C)N1CC(C)CC(O)C1C2C (stereo unspecified)	5
CC(=O)N(C)NC(=O)c1ccccc1	1
O=c1cccccc1[O-].O=c1cccccc1[O-].O=c1cccccc1[O-].[Nd+3]	15
CCN(CC)COC(=S)S	11
COc1ccc(CNC(C#N)c2ccccc2)cc1OC (stereo unspecified)	3
O=c1ccnc(Sc2ccc([N+](=O)[O-])cc2[N+](=O)[O-])[nH]1	2
OC(CCN1CCOCC1)(c1cccc(Cl)c1)C1CCCCC1 (stereo unspecified)	0
c1ccc(-c2cc(Nc3ccc4c(c3)OCO4)c3cc(C4CCCCC4)ccc3n2)cc1	27
CCN(CC)CCCNc1cccc2ccc(OC)nc12	-9
N#[N+]c1c([O-])ccc2nc3ccccc3nc12	-56

Input line: Return the recorded growth inhibition value; entry: CC(=O)N1c2ccccc2Sc2ccc3ccc(C(=O)CCl)cc3c21
Output line: 92

---

experiment: NCI Yeast Anticancer Drug Screen. Data for the bub3 strain (AID 167); conditions: S. cerevisiae bub3 mutant strain, at 50.0 µM (retest, dose inferred, filed as 5.0)
About 79,000 compounds went through this panel and 15% of them were active in at least one assay; those are over-represented in the sample as a whole. Active and inactive are the calls of the source. No stated cut-off is given here; in the data, active means growth inhibition above about 70%; inactive means the rest.
Write down the outcome that applies. Available outcomes: active, inactive

Worked set:
COMPOUND	GROUP LABEL
O=C(/C=C/c1ccccc1)c1cc2c(cc1O)OCO2	inactive
O=C(C#CC(=O)[O][Sn]([c]1ccccc1)([c]1ccccc1)[c]1ccccc1)[O][Sn]([c]1ccccc1)([c]1ccccc1)[c]1ccccc1	active
CC1CCC(C(C)C)C(OC(=O)Nc2ccc(S(=O)(=O)N(C)C)cc2)C1 (stereo not drawn)	active

Input line: I'd appreciate the recorded outcome for [Ce+3].[Cl-].[O-]/N=C(\c1ccccc1)c1ccccn1.[O-]/N=C(\c1ccccc1)c1ccccn1.[O-]/N=C(\c1ccccc1)c1ccccn1 from this test.
Output line: active

Input line: I'd appreciate the recorded outcome for CCCCOCN(CC(CC)CCCC)CC(CC)CCCC (stereo not drawn) from this test.
Output line: inactive

Input line: I'd appreciate the recorded outcome for C#CC(C)(C)OC(C)=O from this test.
Output line: inactive

Input line: I'd appreciate the recorded outcome for CN(C)c1ccc(SC(=S)NCc2ccccc2)cc1 from this test.
Output line: active

Input line: I'd appreciate the recorded outcome for Cc1c2ccccc2cc2c1ccc1cccc(F)c12 from this test.
Output line: active

Input line: I'd appreciate the recorded outcome for CCCCCCCCCCN(CCCCCCCCCC)C(=O)COc1c2cc(C(C)(C)C)cc1Cc1cc(C(C)(C)C)cc(c1OCC(=O)N(CCCCCCCCCC)CCCCCCCCCC)Cc1cc(C(C)(C)C)cc(c1OCC(=O)N(CCCCCCCCCC)CCCCCCCCCC)Cc1cc(C(C)(C)C)cc(c1OCC(=O)N(CCCCCCCCCC)CCCCCCCCCC)C2 from this test.
Output line: active

Input line: I'd appreciate the recorded outcome for CCOC(=O)c1sc2c(c1O)c(=O)n(-c1ccccc1)c(=S)n2-c1ccccc1 from this test.
Output line: active
